- target-of-assay: PI3K-α (PIK3CA) in MDA-MB-453 cells (Homo sapiens, UniProt P42336)
- Sequence (P42336 whole entry): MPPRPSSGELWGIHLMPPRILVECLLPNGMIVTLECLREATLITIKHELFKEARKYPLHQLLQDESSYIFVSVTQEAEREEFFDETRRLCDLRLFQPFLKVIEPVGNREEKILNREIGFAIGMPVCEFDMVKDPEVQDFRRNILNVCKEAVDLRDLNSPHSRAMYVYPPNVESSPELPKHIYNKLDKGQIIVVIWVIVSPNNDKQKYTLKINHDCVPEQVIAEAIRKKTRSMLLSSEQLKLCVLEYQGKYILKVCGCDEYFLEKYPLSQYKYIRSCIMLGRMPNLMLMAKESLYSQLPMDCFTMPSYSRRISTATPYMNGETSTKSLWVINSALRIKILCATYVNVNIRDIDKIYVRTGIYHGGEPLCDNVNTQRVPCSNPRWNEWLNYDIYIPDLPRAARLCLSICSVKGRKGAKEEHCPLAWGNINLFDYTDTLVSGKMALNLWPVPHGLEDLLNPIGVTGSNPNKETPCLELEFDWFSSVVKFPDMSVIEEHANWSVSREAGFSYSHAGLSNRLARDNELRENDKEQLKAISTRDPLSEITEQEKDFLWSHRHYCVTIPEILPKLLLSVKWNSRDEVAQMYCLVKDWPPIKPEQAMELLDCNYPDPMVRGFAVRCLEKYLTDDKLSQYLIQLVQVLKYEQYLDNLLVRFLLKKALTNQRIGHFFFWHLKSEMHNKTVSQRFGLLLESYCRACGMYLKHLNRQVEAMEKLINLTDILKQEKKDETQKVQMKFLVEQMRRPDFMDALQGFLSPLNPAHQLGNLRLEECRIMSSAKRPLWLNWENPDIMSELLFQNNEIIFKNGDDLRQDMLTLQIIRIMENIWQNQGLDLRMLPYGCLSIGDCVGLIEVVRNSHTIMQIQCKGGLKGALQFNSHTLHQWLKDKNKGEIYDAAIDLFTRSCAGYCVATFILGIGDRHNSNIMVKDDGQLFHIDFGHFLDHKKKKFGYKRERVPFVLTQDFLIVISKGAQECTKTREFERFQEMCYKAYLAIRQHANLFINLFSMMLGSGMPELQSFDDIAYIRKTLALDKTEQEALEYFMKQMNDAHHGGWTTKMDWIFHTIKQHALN
- Sequence (P27986 2-724, further chain): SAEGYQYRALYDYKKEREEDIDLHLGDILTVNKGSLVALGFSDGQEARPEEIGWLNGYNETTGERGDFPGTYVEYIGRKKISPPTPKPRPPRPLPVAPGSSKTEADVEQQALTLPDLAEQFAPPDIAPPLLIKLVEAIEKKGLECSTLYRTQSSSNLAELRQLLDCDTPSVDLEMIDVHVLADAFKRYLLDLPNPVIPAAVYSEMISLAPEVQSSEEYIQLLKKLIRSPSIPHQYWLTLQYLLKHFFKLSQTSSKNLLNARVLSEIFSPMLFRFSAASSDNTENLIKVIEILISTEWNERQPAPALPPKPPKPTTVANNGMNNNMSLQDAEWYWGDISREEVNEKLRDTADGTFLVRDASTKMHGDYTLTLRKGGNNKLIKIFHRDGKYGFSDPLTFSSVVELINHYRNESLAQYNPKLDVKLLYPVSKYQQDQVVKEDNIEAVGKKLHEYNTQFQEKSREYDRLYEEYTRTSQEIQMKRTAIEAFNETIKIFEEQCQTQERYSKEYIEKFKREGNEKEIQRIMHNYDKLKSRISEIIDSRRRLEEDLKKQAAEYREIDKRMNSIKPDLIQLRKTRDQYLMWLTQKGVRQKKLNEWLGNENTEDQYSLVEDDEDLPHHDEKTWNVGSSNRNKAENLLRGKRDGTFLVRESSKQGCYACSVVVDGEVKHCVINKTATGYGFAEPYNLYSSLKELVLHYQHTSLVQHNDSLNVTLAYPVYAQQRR
- measurement-description: PI3K-Alpha Kinase (PIK3CA) activity in vitro cell based assay (AlphaLisa SureFire)
- assay-context: 0% FBS, 3 hours treatment, read-out: PI3K-α (PIK3CA) in vitro cell based assay IC50
pIC50: −log10 of the molar value.
Catalogue of pIC50 readings, one per entry.

Below are worked cases with known answers.
Cc1cc(C(C)Nc2ccc(Cl)nc2C(=O)O)c2oc(-c3cncc(F)c3)c(C)c(=O)c2c1 (single isomer, unassigned; isomer 1)
> 7.30
Cc1cc(C(C)Nc2ccc(Cl)nc2C(=O)O)c2oc(-c3ccccn3)c(C)c(=O)c2c1 (single isomer, unassigned; isomer 1)
> 7.30
Cc1cc(C(C)Nc2cccnc2C(=O)O)c2oc(-c3cccnc3)c(C)c(=O)c2c1 (single isomer, unassigned; isomer 1)
7.00 to 7.30
COc1ccc(-c2cc(=O)c3cc(C)cc(C(C)Nc4ccccc4C(=O)O)c3o2)cn1 (single isomer, unassigned; isomer 1)
< 6.30
Cc1cc(C(C)Nc2ccc(C)nc2C(=O)O)c2oc(-c3cccnc3)c(C)c(=O)c2c1 (single isomer, unassigned; isomer 1)
7.00 to 7.30

Assign pIC50 to the following record: Cc1cc(C(C)Nc2ccccc2C(=O)O)c2oc(-c3ccc(OC(C)C)nc3)cc(=O)c2c1 (single isomer, unassigned; isomer 1)
< 6.30

Assign pIC50 to the following record: Cc1cc(C(C)Nc2ccc(Br)nc2C(=O)O)c2oc(-c3cccnc3)c(C)c(=O)c2c1 (single isomer, unassigned; isomer 1)
> 7.30

Assign pIC50 to the following record: Cc1cc(C(C)Nc2ccc(F)c(F)c2C(=O)O)c2oc(-c3ccccn3)c(C)c(=O)c2c1 (single isomer, unassigned; isomer 1)
7.00 to 7.30

Assign pIC50 to the following record: Cc1c(-c2ccccn2)oc2c(C(C)Nc3ccc(Cl)nc3C(=O)O)cc(C(F)(F)F)cc2c1=O (single isomer, unassigned; isomer 1)
> 7.30

Assign pIC50 to the following record: Cc1cc(C(C)Nc2ccccc2C(=O)O)c2oc(-c3cnn(-c4cccnc4)c3)cc(=O)c2c1 (single isomer, unassigned; isomer 1)
< 6.30

Assign pIC50 to the following record: Cc1cc(C(C)Nc2ccc(Cl)nc2C(=O)O)c2oc(-c3cccc(C(F)F)n3)c(C)c(=O)c2c1 (single isomer, unassigned; isomer 1)
> 7.30

Assign pIC50 to the following record: Cc1cc(C(C)Nc2cccc(F)c2C(=O)O)c2oc(-c3cnn(-c4ccc(C#N)cc4)c3)cc(=O)c2c1 (single isomer, unassigned; isomer 2) [Example 113]
6.30 to 7.00

Assign pIC50 to the following record: Cc1cc(C(C)Nc2ccc(C)nc2C(=O)O)c2oc(-c3cncc(F)c3)c(C)c(=O)c2c1 (single isomer, unassigned; isomer 1)
> 7.30

Assign pIC50 to the following record: COc1cccc(-c2nnc(-c3cc(=O)c4cc(C)cc(C(C)Nc5ccccc5C(=O)O)c4o3)o2)c1 (single isomer, unassigned; isomer 2)
6.30 to 7.00

Assign pIC50 to the following record: Cc1cc(C(C)Nc2ccccc2C(=O)O)c2oc(-c3cccnc3)c(C)c(=O)c2c1 (single isomer, unassigned; isomer 1)
> 7.30

----------
- target-of-assay: human full length PIK3KA H1047R mutant (p110α/p85α complex) (Homo sapiens, UniProt P42336, H1047R)
- Construct: Recombinant, catalytically active human full length PIK3KA Wild-type and H1047R mutant were purchased; 6xHis (N); purchased EMD Millipore Sigma 14-792M
- Sequence (P42336 whole entry H1047R): as the sequence (P42336 whole entry) above, with H1047R counted along it
- Sequence (P27986 whole entry partner): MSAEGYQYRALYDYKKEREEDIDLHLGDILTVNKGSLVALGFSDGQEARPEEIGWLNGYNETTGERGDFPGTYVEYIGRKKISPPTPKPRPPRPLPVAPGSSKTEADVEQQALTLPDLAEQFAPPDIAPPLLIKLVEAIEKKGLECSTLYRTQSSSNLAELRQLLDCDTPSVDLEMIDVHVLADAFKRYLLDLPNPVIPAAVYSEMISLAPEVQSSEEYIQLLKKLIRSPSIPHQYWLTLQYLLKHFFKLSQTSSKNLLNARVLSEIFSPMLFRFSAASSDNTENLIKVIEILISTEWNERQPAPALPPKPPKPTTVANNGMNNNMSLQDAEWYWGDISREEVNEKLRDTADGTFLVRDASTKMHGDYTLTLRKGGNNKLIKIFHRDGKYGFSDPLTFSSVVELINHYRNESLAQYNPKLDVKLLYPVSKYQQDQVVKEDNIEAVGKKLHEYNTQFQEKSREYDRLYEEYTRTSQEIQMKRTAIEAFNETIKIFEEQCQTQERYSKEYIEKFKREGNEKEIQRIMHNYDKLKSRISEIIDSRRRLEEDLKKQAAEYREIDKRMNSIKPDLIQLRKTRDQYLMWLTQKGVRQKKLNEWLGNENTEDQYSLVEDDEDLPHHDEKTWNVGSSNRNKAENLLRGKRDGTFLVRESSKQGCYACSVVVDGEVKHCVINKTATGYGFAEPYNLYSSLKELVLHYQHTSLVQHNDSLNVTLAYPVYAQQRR
- measurement-description: PI3K-Alpha Kinase (PIK3CA) biochemical activity, H1047R mutant (ADP-Glo)
- assay-context: Soy PI lipid substrate, 20 uM ATP
observed-property: IC50

Assign IC50 to the following record: Cc1cc(C(C)Nc2ccccc2C(=O)O)c2oc(-c3ccc(F)nc3)cc(=O)c2c1 (single isomer, unassigned; isomer 2) [Example 36]
< 0.5 µM

Assign IC50 to the following record: Cc1cc(C(C)Nc2ccccc2C(=O)O)c2oc(-c3ccc(C(F)(F)F)nc3)cc(=O)c2c1 (stereo not drawn) [Example 8]
< 0.5 µM

Assign IC50 to the following record: Cc1cc(C(C)Nc2ccc(F)c(F)c2C(=O)O)c2oc(-c3ccccn3)c(C)c(=O)c2c1 (single isomer, unassigned; isomer 1) [Example 128]
< 0.5 µM

Assign IC50 to the following record: Cc1cc(C(C)Nc2ccccc2C(=O)O)c2oc(-c3cn(-c4ccc(C#N)cc4)nn3)cc(=O)c2c1 (single isomer, unassigned) [Example 124]
< 0.5 µM

Assign IC50 to the following record: COc1ccc(-c2cc(=O)c3cc(C)cc(C(C)Nc4ccccc4C(=O)O)c3o2)cn1 (single isomer, unassigned; isomer 1) [Example 19]
5 to 10 µM

Assign IC50 to the following record: Cc1cc(C(C)Nc2ccccc2C(=O)O)c2oc(-c3cnc(OC(C)C)nc3)cc(=O)c2c1 (single isomer, unassigned; isomer 1) [Example 41]
> 10 µM

Assign IC50 to the following record: COc1ccc(-n2cc(-c3cc(=O)c4cc(C)cc(C(C)Nc5ccccc5C(=O)O)c4o3)cn2)cn1 (single isomer, unassigned) [Example 81]
0.5 to 1 µM

Assign IC50 to the following record: Cc1cc(C(C)Nc2cccnc2C(=O)O)c2oc(-c3cccnc3)c(C)c(=O)c2c1 (single isomer, unassigned; isomer 1) [Example 116]
< 0.5 µM

Assign IC50 to the following record: COc1cccc(-c2cc(=O)c3cc(C)cc(C(C)Nc4ccccc4C(=O)O)c3o2)n1 (single isomer, unassigned; isomer 1) [Example 21]
5 to 10 µM

Assign IC50 to the following record: Cc1cc(C(C)Nc2ccccc2C(=O)O)c2oc(-c3cncc(-n4cccn4)c3)c(C)c(=O)c2c1 (single isomer, unassigned) [Example 127]
< 0.5 µM

Assign IC50 to the following record: Cc1cc(C(C)Nc2ccc(C)nc2C(=O)O)c2oc(-c3cncc(F)c3)c(C)c(=O)c2c1 (single isomer, unassigned; isomer 1) [Example 123]
< 0.5 µM

Assign IC50 to the following record: Cc1cc(C(C)Nc2ccccc2C(=O)O)c2oc(-c3cnc(C4CC4)nc3)cc(=O)c2c1 (single isomer, unassigned; isomer 2) [Example 26]
< 0.5 µM

Assign IC50 to the following record: Cc1cc(C(C)Nc2ccccc2C(=O)O)c2oc(-c3ccccn3)cc(=O)c2c1 (single isomer, unassigned; isomer 1) [Example 17]
< 0.5 µM

Assign IC50 to the following record: Cc1cc(C(C)Nc2ccc(C)nc2C(=O)O)c2oc(-c3ccccn3)c(C)c(=O)c2c1 (single isomer, unassigned; isomer 1) [Example 122]
< 0.5 µM

Assign IC50 to the following record: COc1ccc(-c2cc(=O)c3cc(C)cc(C(C)Nc4ccccc4C(=O)O)c3o2)cn1 (single isomer, unassigned; isomer 2) [Example 20]
< 0.5 µM

Assign IC50 to the following record: CC(Nc1ccccc1C(=O)O)c1cc(F)cc2c(=O)cc(-c3cnn(-c4cccnc4)c3)oc12 (single isomer, unassigned) [Example 55]
< 0.5 µM

Assign IC50 to the following record: COc1ccccc1-n1cc(-c2oc3c(C(C)Nc4ccccc4C(=O)O)cc(C)cc3c(=O)c2C)cn1 (single isomer, unassigned) [Example 70]
1 to 5 µM

Assign IC50 to the following record: Cc1cc(C(C)Nc2ccccc2C(=O)O)c2oc(-c3ccccn3)c(C)c(=O)c2c1 (single isomer, unassigned; isomer 1) [Example 24]
< 0.5 µM

Origin of measurements: patent US20230014445A1
